- tested target: Microphthalmia-associated transcription factor (Homo sapiens)
- assay protocol: MITF inhibitors, potency by titration, dose response, biochemical, AlphaScreen, human (AID 1259371)
- reported conditions: AlphaScreen biochemical MITF assay, signal inhibition
The source made the active and inactive calls. No rule for the calls is given here.
Hi! Could you answer with just one of these? active, inactive

Please share the test call associated with CCOC1=CC(c2ccc3c(c2)OCO3)CC(=O)c2c(C)oc(C)c21 (stereo not drawn) .
inactive

Which outcome was assigned to Clc1ccc2c(c1)CC(c1nc(Nc3cncnc3)c3ccccc3n1)CO2 (stereo not drawn) in this test?
inactive

Fill in: this test's call for O=C(OCCCC(=O)N1CCOCC1)c1cc(-c2ccco2)nc2ccccc12 is ___
inactive

Recorded test call requested for Cc1cc(C(=O)O)ccc1-c1ccc(/C=C2/NC(=O)NC2=O)o1
inactive

Given N#C/C(=C(/O)COC(=O)c1cc2c(s1)CCC2)c1nc2ccccc2[nH]1 , state the outcome it received in this test.
active

Dear all, I need the recorded test outcome for COc1cc(C)c2c(c1C=O)Oc1c(c(C)c(O)c3c1C(O)OC3=O)OC2=O (stereo not drawn) , thank you.
active

Status in this test for CC[C@@H]1NC(=O)[C@H]2CN(C(=O)NC3CCCCC3)CCN2C1=O ?
active

Look up the recorded call for CN(CCc1ccccn1)Cc1ccc(F)cc1 in this test.
inactive

Assay result, entry CC(C)NC(=O)c1cccc(NC(=O)Nc2ccc(-c3ncnc4[nH]cc(Cl)c34)cc2)c1 — outcome?
active

Please let me know the test result on file for O=C(O)c1cc([N+](=O)[O-])cc2c1-c1c(cc([N+](=O)[O-])cc1[N+](=O)[O-])/C2=C/c1ccco1 .
inactive

Per the assay record, what outcome was assigned to O=C(NNC(=S)Nc1ccccc1)C(=O)NNC(=S)Nc1ccccc1 ?
inactive

Lab log entry: CC(C)C[C@@H]1NC(=O)[C@H]2CN(C(=O)NC3CCCCC3)CCN2C1=O — outcome as called in the assay?
active

What is the recorded call for this molecule in the test? CC(=C/C(=O)O)/C=C/c1ccoc1
active

Write down the call the test reported for this molecule. Item: O=C(NC1CCN(Cc2ccccc2)CC1)c1ccc2nc(-c3cccs3)sc2c1
inactive

Hi team, can someone confirm the assay call for CN1C(=O)[C@H]2CN(C(=O)NCc3ccccc3)CCN2C(=O)[C@@H]1Cc1ccccc1 ?
inactive

GET /call?item= O=C(Nc1cc(S(=O)(=O)O)cc2cc(S(=O)(=O)O)cc(O)c12)c1ccccc1 returns the recorded outcome of this test.
active

Please state the recorded outcome for this molecule: O=C(/C=C/c1ccco1)NCCCCCCNC(=O)/C=C/c1ccco1
inactive

In this assay, the call recorded for Cc1cccc(C(=O)Nc2c3c(nn2-c2ccc(F)cc2)CSC3)c1 was what?
inactive

What call does the record list for CN(CCOC(=O)/C=C/c1ccco1)Cc1ccccc1 ?
active

What call does the record list for O=C(OC1CCOC1=O)c1ccc(S(=O)(=O)NCc2ccco2)cc1 (stereo not drawn) ?
inactive

Tell me the assay call for N#CC1=c2/c(=C/c3ccco3)c(N)c(C#N)n2C(=O)C(c2ccco2)S1 (stereo not drawn) please.
active

Record request — test call for O=C1c2ccc([N+](=O)[O-])cc2C(=O)N1c1cc(Br)c(O)c(Br)c1
active

// param item: COC(=O)CSc1nnc(-c2cnccn2)n1C ; yields the recorded call
inactive

Please state the recorded outcome for this molecule: O=C(O)c1cccc(N2C(=O)CC(Nc3ccc(N4CCOCC4)cc3)C2=O)c1 (stereo not drawn)
active

# outcome recorded in this test, key = Cc1ccc(O)c(NC(=S)NC(=O)/C=C/c2ccco2)c1
inactive

Fill in: this test's call for COc1cc2cc3c(N)c(C(=O)Nc4sc(C)c(C)c4C#N)sc3nc2cc1OC is ___
active

Just curious, what result did COc1cc(CN2CCN(C3CCCC3)CC2)cc(OC)c1OC get here?
inactive

What did the test return for CC(C)C[C@H]1C(=O)N2CCN(C(=O)NC3CCCCC3)C[C@@H]2C(=O)N1C ?
inactive

Could you please tell me the result logged for C[C@@H](OCc1ccccc1)[C@@H]1NC(=O)[C@H]2CN(C(=O)Nc3cccc(F)c3)CCN2C1=O in this assay?
inactive

GET /call?item= CCOc1cccc(OCC)c2c(C)nc(C)c1-2 returns the recorded outcome of this test.
active

Give the logged outcome of this assay for the following molecule: O=Cc1cccn1-c1ccc(C(=O)O)cc1
inactive

Recorded test outcome, item CN(C)/C=C/C=C/C(=O)c1cccc(C(=O)/C=C/C=C/N(C)C)c1O
active

Could you kindly confirm the outcome this assay logged for C=C1c2cccc(O)c2C(O)=C2C(=O)[C@]3(O)C(O)=C(C(N)=O)C(=O)[C@@H](N(C)C)[C@@H]3[C@@H](O)[C@H]12 ?
active

Give the logged outcome of this assay for the following molecule: CN(C)CCS(=O)c1cc(-c2cn[nH]c2)ccc1NC(=O)[C@H]1Cc2cc(F)ccc2CN1 (stereo partly drawn)
inactive

Which outcome was assigned to c1ccc2c(c1)OCC(c1nc3c(-c4ccncc4)cncc3[nH]1)O2 (stereo not drawn) in this test?
inactive

Given NC(=O)c1cccc(-c2cccs2)c1 , state the outcome it received in this test.
inactive

Per the records of this test, what outcome belongs to CN1CC(=O)N2CCN(C(=O)NC3CCCCC3)C[C@@H]2C1=O ?
inactive

Look up the recorded call for O=C1N[C@@H](COCc2ccccc2)C(=O)N2CCN(C(=O)NC3CCCCC3)C[C@H]12 in this test.
inactive

What was the test verdict on O=C(O)c1ccc(CS(=O)(=O)c2ccccc2)o1 ?
active

So what was the verdict on COc1cc(C(=O)N2CCN(Cc3ccccc3C)CC2)cc(OC)c1OC in this test?
inactive

For CCN(CC)c1ccc(C(c2c(C)[nH][nH]c2=O)c2c(C)[nH][nH]c2=O)cc1 , which call appears in the assay record?
active

Tell me the recorded outcome of this test for O=C1NC(=S)N/C1=C\c1ccc([N+](=O)[O-])o1 .
active

How was O=C(OC1CCCC1=O)c1ccc(Cl)c(S(=O)(=O)N2CCOCC2)c1 (stereo not drawn) classified in this test?
inactive

These data points were gathered from PubChem BioAssay AID1259371.
